target: Carbonic anhydrase 9 (Homo sapiens)
TEST READOUT: Ki (nM)

                            molecule_smiles  test_value
0  NS(=O)(=O)c1ccc(NCC/C(=N/CCO)c2ccccc2)cc1        10.2
1  NS(=O)(=O)c1ccccc1NCCC(=O)c1ccc2ccccc2c1         945
2    NS(=O)(=O)c1ccc(CCNCCC(=O)c2ccccc2)cc1        87.9

A: NS(=O)(=O)c1ccc(C(=O)NNCCC(=O)c2ccc3ccccc3c2)cc1
B: NS(=O)(=O)c1ccc(NCCC(=O)c2ccc3ccccc3c2)cc1
Prompt: Decide: A or B , by lowest recorded Ki. Pick one; state its label.
Response: B
